Below, each of the compounds is paired with its reported pKi value.
Molecular target: CYP3A4 (Homo sapiens (Human), UniProt P08684)
Sequence (P08684 whole entry): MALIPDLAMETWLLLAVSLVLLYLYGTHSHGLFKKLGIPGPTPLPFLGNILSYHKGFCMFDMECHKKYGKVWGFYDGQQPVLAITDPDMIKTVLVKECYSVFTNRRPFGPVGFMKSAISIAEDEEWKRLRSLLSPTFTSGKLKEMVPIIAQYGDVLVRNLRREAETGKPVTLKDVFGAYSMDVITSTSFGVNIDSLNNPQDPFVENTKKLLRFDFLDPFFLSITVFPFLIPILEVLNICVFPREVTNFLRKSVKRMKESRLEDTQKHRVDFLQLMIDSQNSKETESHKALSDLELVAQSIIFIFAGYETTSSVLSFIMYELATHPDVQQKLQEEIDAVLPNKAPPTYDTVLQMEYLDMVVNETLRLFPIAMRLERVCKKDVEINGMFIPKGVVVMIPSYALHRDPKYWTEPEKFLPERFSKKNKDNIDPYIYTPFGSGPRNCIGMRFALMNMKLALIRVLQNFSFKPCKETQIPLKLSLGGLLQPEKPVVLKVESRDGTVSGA
Test: Time-dependent inhibition of CYP3A4;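 note: Two-step in vitro assay, kobs derived from residual CYP3A4 activity versus preincubation time per concentration, then kinact and KI by nonlinear fit of kobs against concentration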
pKi: −log10 of the molar value. Starred links: 1 amine or outer side, 2 acyl side, 3 side chain; linkers in the order of their positions; H or OH if unused. Non-standard residues stand in square brackets, D forms with d. Residues, ends and D or L forms follow the SMILES beside them. X10 = C[C@H](CCCOC(=O)NC1CCN(C)CC1)[C@@H](C(=O)[*:2])N(C)[*:1]; X1 = COC[C@@H]1CN(C[C@H](C)[C@@H](C(=O)[*:2])N(C)[*:1])CCO1; X63 = C[C@H](CN1CCN(C2COC2)CC1)[C@@H](C(=O)[*:2])N(C)[*:1]; X79 = COCCN1CCN(CC[C@@H](C)[C@@H](C(=O)[*:2])N(C)[*:1])CC1; MeBmt = C/C=C/C[C@@H](C)[C@@H](O)[C@H](NC)C(=O)O; NMeL = CN[C@@H](CC(C)C)C(=O)O; NMeV = CN[C@H](C(=O)O)C(C)C; dNMeA = CN[C@H](C)C(=O)O; Abu = CC[C@H](N)C(=O)O

Here's what some known entries look like.
>>> value_measured("C/C=C/C[C@@H](C)[C@@H](O)[C@H]1C(=O)N[C@@H](CC)C(=O)N(C)[C@H](C)C(=O)N(C)[C@@H]([C@H](C)CO[C@H]2CCOC2)C(=O)N[C@@H](C(C)C)C(=O)N(C)[C@@H](CC(C)C)C(=O)N[C@@H](C)C(=O)N[C@H](C)C(=O)N(C)[C@@H](CC(C)C)C(=O)N(C)[C@@H](CC(C)C)C(=O)N(C)[C@@H](C(C)C)C(=O)N1C (stereo in doubt) [Compound 2.16]")
"< 4.30"
>>> value_measured("C/C=C/C[C@@H](C)[C@@H](O)[C@H]1C(=O)N[C@@H](CC)C(=O)N(C)[C@H](C)C(=O)N(C)[C@@H]([C@@H](C)CN2CCO[C@H](COC)C2)C(=O)N[C@@H](C(C)C)C(=O)N(C)[C@@H](CC(C)C)C(=O)N[C@@H](C)C(=O)N[C@H](C)C(=O)N(C)[C@@H](CC(C)C)C(=O)N(C)[C@@H](CC(C)C)C(=O)N(C)[C@@H](C(C)C)C(=O)N1C [Compound 2.17.8] (cyclo(A[dA][NMeL][NMeL][NMeV][MeBmt][Abu][dNMeA][X1]V[NMeL]))")
"< 4.30"

[in] Please state recorded pKi (tested on CYP3A4 (Homo sapiens (Human), UniProt P08684)) of C/C=C/C[C@@H](C)[C@@H](O)[C@H]1C(=O)N[C@@H](CC)C(=O)N(C)[C@H](C)C(=O)N(C)[C@@H]([C@H](C)CCN2CCN(CCOC)CC2)C(=O)N[C@@H](C(C)C)C(=O)N(C)[C@@H](CC(C)C)C(=O)N[C@@H](C)C(=O)N[C@H](C)C(=O)N(C)[C@@H](CC(C)C)C(=O)N(C)[C@@H](CC(C)C)C(=O)N(C)[C@@H](C(C)C)C(=O)N1C [Compound 2.18.3] (cyclo(A[dA][NMeL][NMeL][NMeV][MeBmt][Abu][dNMeA][X79]V[NMeL]))
[out] < 4.30

[in] // next record C/C=C/C[C@@H](C)[C@@H](O)[C@H]1C(=O)N[C@@H](CC)C(=O)N(C)[C@H](C)C(=O)N(C)[C@@H]([C@H](C)CCCOC(=O)NC2CCN(C)CC2)C(=O)N[C@@H](C(C)C)C(=O)N(C)[C@@H](CC(C)C)C(=O)N[C@@H](C)C(=O)N[C@H](C)C(=O)N(C)[C@@H](CC(C)C)C(=O)N(C)[C@@H](CC(C)C)C(=O)N(C)[C@@H](C(C)C)C(=O)N1C [Compound 2.19.8] (cyclo(A[dA][NMeL][NMeL][NMeV][MeBmt][Abu][dNMeA][X10]V[NMeL]))
[out] < 4.30

[in] Input C/C=C/C[C@@H](C)[C@@H](O)[C@H]1C(=O)N[C@@H](CC)C(=O)N(C)[C@H](C)C(=O)N(C)[C@@H]([C@H](C)CN2CCN(C3COC3)CC2)C(=O)N[C@@H](C(C)C)C(=O)N(C)[C@@H](CC(C)C)C(=O)N[C@@H](C)C(=O)N[C@H](C)C(=O)N(C)[C@@H](CC(C)C)C(=O)N(C)[C@@H](CC(C)C)C(=O)N(C)[C@@H](C(C)C)C(=O)N1C [Compound 2.5.11] (cyclo(A[dA][NMeL][NMeL][NMeV][MeBmt][Abu][dNMeA][X63]V[NMeL]))
[out] < 4.30
